- Test system: Raji (Burkitt's) lymphoma cells
- PROCEDURE_DETAILS: MTT assay for 4-day viability of Raji (Burkitt's) lymphoma cells
- Format: cell-based
- CONDITION: Homo sapiens, 96 h, Raji (Burkitt's) lymphoma cells highly expressing MCT1, estimated EC50 given as bin, read-out: approximate potency (EC50)
pEC50: −log10 of the molar value.
Quick list: pEC50 per entry.

CC(C)c1cc(=O)c2c(NCCCCCO)cc(OCc3cccc4ccccc34)cc2o1 ... ≤ 5.00
CC(C)c1cc(=O)c2c(-c3cccc(CO)c3)cc(OCc3cccc4ccccc34)cc2o1 ... 6.00 to 7.00

Value of pEC50 reported for the compound CC(C)c1cc(=O)c2c(OCc3ccccc3CO)cc(OCc3ccnc4ccccc34)cc2o1 is ≥ 7.00

Value of pEC50 reported for the compound O=c1cc(C2CC2)oc2cc(OCc3cccc4ccccc34)cc(OCc3ccccc3CO)c12 is 6.00 to 7.00

Value of pEC50 reported for the compound CC(C)c1cc(=O)c2c(OCc3ccccc3CO)cc(OCc3cnc(Cl)c4ccccc34)cc2o1 is ≥ 7.00

Value of pEC50 reported for the compound CC(C)c1cc(=O)c2c(OCc3ccccc3CO)cc(OCc3ccncc3)cc2o1 is 6.00 to 7.00

Value of pEC50 reported for the compound Cc1cc(=O)c2c(OCCCO)cc(Oc3ccnc4ccccc34)cc2o1 is 5.00 to 6.00

Value of pEC50 reported for the compound CC(C)c1cc(=O)c2c(OCc3ccccc3CO)cc(OCc3cccnc3)cc2o1 is ≥ 7.00

Value of pEC50 reported for the compound CC(C)c1cc(=O)c2c(OCc3ccccc3CO)cc(Oc3ncccc3C(F)(F)F)cc2o1 is ≥ 7.00

Value of pEC50 reported for the compound CC(C)c1cc(=O)c2c(-c3ccc(CO)cc3)cc(OCc3cccc4ccccc34)cc2o1 is 5.00 to 6.00

Value of pEC50 reported for the compound O=c1cc(-c2ccccc2)oc2cc(OCc3cccc4ccccc34)cc(OCCCCO)c12 is 5.00 to 6.00

Value of pEC50 reported for the compound CC(C)c1cc(=O)c2c(OCc3ccccc3CO)cc(Oc3cc(C(F)(F)F)ccn3)cc2o1 is 6.00 to 7.00
